- target under test: Alpha-2A adrenergic receptor (Homo sapiens, UniProt P08913); also: assay procedure not described here
- Sequence (P08913 whole entry): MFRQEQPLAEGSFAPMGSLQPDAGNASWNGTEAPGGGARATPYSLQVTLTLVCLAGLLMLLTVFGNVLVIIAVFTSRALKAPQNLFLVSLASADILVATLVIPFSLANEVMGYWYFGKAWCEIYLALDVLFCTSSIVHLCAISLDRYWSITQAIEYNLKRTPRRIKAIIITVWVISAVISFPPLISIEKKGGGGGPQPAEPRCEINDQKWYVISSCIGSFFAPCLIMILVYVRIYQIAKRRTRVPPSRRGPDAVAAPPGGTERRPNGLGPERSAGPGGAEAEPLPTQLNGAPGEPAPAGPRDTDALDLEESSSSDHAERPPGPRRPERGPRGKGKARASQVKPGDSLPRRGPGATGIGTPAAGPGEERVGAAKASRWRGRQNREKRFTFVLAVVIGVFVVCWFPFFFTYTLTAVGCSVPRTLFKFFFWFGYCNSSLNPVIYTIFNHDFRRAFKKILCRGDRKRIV
measure: AC50

Some compounds with recorded AC50:
compound	measure	measured
OB1OCc2cc(F)ccc21 [TAVABOROLE]	AC50	> 30 µM
CN(C)S(=O)(=O)c1ccc2c(c1)N(CCCN1CCC(CCO)CC1)c1ccccc1S2 [PIPOTIAZINE]	AC50	0.313 µM
Oc1ccccc1 [PHENOL]	AC50	> 30 µM

Entry O=C(O)c1cc(O)ccc1O [GENTISIC ACID] — recorded AC50 = > 30 µM

Measured AC50 of Cc1ccccc1OCC(O)CO (stereo unspecified) [MEPHENESIN] : > 30 µM

get_value(item= CN1CCN(C2=Nc3ccccc3Sc3ccc(Cl)cc32)CC1 [CLOTHIAPINE] , readout=AC50) returns 3.47 µM

====

- target under test: Cholecystokinin receptor type A (Homo sapiens); also: assay procedure not described here
- Sequence (P32238 whole entry): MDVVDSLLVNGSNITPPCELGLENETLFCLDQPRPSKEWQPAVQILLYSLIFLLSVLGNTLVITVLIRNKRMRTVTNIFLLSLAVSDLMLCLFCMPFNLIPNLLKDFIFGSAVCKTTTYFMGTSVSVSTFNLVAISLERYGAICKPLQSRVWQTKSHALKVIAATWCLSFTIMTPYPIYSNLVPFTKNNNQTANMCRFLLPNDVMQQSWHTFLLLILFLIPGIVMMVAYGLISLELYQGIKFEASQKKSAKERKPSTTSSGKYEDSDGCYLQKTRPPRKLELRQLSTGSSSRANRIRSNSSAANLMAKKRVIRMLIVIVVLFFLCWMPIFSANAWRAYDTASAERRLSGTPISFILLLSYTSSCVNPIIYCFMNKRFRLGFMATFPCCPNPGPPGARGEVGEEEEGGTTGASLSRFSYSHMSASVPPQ
measure: AC50

Solved cases below.
compound	measured
CC(Oc1c(Cl)cccc1Cl)C1=NCCN1 (centres undefined)	> 30 µM
N#Cc1ccc([C@H]2CCc3cncn32)c(F)c1	> 10 µM
COC(=O)[C@H]1[C@H]2C[C@@H]3c4[nH]c5cc(OC)ccc5c4CCN3C[C@H]2C[C@@H](OC(=O)/C=C/c2cc(OC)c(OC)c(OC)c2)[C@@H]1OC	> 10 µM

// AC50 value for CN1CCC(=C2c3ccccc3CCc3sccc32)CC1 : > 30 µM

====

- target under test: 5-hydroxytryptamine receptor 2C (Homo sapiens); also: assay procedure not described here
- Sequence (P28335 whole entry): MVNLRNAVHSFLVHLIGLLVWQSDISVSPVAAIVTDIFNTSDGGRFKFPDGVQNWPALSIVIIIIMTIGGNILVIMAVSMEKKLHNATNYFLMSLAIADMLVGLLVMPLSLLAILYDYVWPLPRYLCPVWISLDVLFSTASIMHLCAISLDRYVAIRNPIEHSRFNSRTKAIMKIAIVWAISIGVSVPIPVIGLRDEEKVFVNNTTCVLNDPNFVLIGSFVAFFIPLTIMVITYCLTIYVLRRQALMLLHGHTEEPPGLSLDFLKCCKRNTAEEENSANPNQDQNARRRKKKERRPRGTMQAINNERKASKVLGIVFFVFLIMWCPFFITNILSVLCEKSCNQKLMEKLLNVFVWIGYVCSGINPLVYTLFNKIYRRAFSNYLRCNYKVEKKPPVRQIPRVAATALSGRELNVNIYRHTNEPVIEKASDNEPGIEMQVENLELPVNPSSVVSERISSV
measure: AC50

Guide cases for AC50, answers given:
compound	AC50
COc1ccc(CCN(C)CCCC(C#N)(c2cc(OC)c(OC)c(OC)c2)C(C)C)cc1OC (centres undefined) [GALLOPAMIL]	5 µM
NC(=O)CN1CC(O)CC1=O (centres undefined) [OXIRACETAM]	> 30 µM
COCCCN1CCC(NC(=O)c2cc(Cl)c(N)c3c2OCC3)CC1 [PRUCALOPRIDE]	> 30 µM

Pending compound:
Form field, AC50 with 5-hydroxytryptamine receptor 2C (Homo sapiens), item CCCCc1ncc(/C=C(\Cc2cccs2)C(=O)O)n1Cc1ccc(C(=O)O)cc1 [EPROSARTAN] : > 10 µM

====

- target under test: Voltage-dependent L-type calcium channel subunit alpha-1C (Rattus norvegicus, UniProt P22002); also: assay procedure not described here
- Sequence (P22002 whole entry): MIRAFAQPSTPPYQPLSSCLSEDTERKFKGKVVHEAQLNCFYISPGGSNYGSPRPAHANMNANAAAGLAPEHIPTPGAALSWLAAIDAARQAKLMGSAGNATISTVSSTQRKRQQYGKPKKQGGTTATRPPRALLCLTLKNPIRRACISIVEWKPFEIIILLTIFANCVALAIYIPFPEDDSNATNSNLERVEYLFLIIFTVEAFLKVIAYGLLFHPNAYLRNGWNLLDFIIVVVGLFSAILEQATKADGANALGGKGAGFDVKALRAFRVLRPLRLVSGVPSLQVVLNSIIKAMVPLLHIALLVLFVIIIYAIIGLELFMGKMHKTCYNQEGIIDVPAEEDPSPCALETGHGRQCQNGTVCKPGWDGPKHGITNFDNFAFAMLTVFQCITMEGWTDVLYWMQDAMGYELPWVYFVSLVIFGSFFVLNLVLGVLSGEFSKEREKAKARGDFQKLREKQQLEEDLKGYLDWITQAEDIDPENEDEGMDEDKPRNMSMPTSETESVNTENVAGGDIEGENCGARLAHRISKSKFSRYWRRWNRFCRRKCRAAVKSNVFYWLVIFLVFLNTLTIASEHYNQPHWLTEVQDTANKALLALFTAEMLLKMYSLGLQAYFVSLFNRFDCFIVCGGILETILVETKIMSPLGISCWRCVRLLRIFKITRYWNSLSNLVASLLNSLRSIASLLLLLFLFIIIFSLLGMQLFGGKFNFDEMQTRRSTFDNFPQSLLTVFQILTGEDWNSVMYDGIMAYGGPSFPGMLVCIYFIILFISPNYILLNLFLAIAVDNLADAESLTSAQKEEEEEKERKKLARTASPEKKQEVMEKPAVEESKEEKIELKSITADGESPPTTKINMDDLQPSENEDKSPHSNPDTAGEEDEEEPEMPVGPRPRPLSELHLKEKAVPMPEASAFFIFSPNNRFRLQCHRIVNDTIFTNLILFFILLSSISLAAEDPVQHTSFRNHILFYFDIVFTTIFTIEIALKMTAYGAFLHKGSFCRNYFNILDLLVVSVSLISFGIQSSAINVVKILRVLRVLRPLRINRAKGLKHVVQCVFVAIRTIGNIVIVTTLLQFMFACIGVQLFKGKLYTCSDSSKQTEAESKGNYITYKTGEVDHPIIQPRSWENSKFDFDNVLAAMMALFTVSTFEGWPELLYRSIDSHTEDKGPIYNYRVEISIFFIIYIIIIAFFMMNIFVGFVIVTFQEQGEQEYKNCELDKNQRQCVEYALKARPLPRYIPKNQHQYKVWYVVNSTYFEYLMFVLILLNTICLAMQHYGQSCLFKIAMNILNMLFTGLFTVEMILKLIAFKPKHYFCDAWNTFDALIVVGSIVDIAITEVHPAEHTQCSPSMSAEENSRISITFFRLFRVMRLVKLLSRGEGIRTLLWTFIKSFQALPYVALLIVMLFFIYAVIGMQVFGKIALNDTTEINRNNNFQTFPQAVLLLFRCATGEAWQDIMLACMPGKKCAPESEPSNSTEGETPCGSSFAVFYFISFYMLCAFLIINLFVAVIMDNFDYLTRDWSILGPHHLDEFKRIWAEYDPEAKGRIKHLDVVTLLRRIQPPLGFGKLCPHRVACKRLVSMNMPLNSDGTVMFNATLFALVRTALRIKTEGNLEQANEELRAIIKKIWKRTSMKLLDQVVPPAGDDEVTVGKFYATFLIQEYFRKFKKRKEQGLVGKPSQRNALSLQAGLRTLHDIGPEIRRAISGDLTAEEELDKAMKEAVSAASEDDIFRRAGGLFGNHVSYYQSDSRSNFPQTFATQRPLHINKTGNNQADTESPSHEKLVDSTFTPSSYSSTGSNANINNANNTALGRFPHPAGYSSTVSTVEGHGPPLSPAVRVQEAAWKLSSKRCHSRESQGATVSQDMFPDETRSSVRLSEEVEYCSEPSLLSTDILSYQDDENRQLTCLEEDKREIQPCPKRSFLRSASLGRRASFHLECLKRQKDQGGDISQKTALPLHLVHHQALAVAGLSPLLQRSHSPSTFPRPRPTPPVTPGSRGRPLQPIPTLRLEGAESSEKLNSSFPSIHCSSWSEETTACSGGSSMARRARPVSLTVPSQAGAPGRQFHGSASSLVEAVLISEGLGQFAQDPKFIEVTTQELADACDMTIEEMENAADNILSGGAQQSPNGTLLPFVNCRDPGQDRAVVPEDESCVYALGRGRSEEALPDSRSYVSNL
- Format: functional
measure: AC50

compound	AC50
CC[C@@H]1C(=O)OC[C@@H]1Cc1cncn1C [PILOCARPINE]	> 10 µM
O=C(NCCN1CCOCC1)c1ccc(Cl)cc1 [MOCLOBEMIDE]	> 10 µM

Query C[C@H]1COc2c(C3(N)CC3)c(F)cc3c(=O)c(C(=O)O)cn1c23 [PAZUFLOXACIN] yields AC50 of > 10 µM

Short answer for Clc1ccccc1C(c1ccccc1)(c1ccccc1)n1ccnc1 [CLOTRIMAZOLE] : AC50 was 13.6 µM

Measured AC50, CC(CC(c1ccccc1)c1ccccc1)NC(C)(C)C (stereo not given) [TERODILINE] : > 30 µM

====

Catalogue of AC50 values
- target under test: Beta-1 adrenergic receptor (Homo sapiens, UniProt P08588); also: assay procedure not described here
- Sequence (P08588 whole entry): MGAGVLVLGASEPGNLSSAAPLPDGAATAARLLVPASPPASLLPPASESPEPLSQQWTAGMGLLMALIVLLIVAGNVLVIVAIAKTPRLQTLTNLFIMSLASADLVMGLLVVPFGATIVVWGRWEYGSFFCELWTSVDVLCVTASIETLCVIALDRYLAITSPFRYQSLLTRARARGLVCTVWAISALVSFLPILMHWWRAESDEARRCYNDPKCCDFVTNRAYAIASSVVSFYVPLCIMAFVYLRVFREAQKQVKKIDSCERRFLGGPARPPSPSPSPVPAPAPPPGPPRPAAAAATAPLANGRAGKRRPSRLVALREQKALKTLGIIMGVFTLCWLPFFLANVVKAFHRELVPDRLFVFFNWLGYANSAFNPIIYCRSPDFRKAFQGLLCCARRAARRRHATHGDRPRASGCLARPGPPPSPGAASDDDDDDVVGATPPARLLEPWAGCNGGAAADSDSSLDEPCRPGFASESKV
- Type: functional

compound	AC50
Cc1cn([C@H]2C[C@H](N=[N+]=[N-])[C@@H](CO)O2)c(=O)[nH]c1=O	> 10 µM
CC(C[N+](C)(C)C)OC(N)=O (centres undefined)	> 10 µM

Consider CCCCc1ncc(/C=C(\Cc2cccs2)C(=O)O)n1Cc1ccc(C(=O)O)cc1 . Its measured AC50 is > 10 µM

====

- target under test: Beta-1 adrenergic receptor (Homo sapiens, UniProt P08588); also: assay procedure not described here
- Type: functional
Listed next: entries and their corresponding AC50.

Example entries and their recorded answers appear below.
compound	measured
CCOC(=O)[C@H](CCc1ccccc1)N[C@@H](C)C(=O)N1C(=O)N(C)C[C@H]1C(=O)O	> 30 µM
CCCC(=O)O[C@]1(C(=O)CO)CC[C@H]2[C@@H]3CCC4=CC(=O)CC[C@]4(C)[C@H]3[C@@H](O)C[C@@]21C [HYDROCORTISONE BUTYRATE]	> 10 µM
CNC(=O)c1ccccc1Sc1ccc2c(/C=C/c3ccccn3)n[nH]c2c1	> 30 µM

The compound listed as C[C@]1(O)CC[C@H]2[C@@H]3CCC4=CC(=O)CC[C@]4(C)[C@@]3(F)[C@@H](O)C[C@@]21C shows AC50 equal to > 10 µM

Reported AC50 for CC(C)C(=O)c1c(C(C)C)nn2ccccc12 was > 30 µM

Quick note, AC50 for COC(=O)C1=C(C)NC(C)=C(C(=O)OC(C)(C)CN(C)CCC(c2ccccc2)c2ccccc2)C1c1cccc([N+](=O)[O-])c1 (stereo not drawn) landed at > 30 µM

get_value(item= CC[C@@H](C(N)=O)N1CCCC1=O , readout=AC50) returns > 30 µM

CN1C(=O)CCS(=O)(=O)C1c1ccc(Cl)cc1 (stereo not drawn) has a reported AC50 of > 10 µM

====

- target under test: Cannabinoid receptor 1 (Homo sapiens); also: assay procedure not described here
- Sequence (P21554 whole entry): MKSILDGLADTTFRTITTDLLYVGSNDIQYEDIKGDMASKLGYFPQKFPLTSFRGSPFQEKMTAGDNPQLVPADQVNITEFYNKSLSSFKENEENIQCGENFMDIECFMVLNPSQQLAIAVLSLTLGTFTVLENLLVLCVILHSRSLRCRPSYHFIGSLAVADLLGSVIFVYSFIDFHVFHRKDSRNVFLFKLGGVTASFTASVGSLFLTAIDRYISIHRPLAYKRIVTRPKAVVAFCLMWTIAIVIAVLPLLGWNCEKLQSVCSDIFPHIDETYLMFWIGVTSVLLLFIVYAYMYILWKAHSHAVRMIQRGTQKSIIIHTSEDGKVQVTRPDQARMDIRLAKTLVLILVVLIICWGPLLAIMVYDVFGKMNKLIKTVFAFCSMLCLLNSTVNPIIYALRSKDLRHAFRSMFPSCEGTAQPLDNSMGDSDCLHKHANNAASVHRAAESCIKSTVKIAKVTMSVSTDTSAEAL
Entries and their AC50 values follow.

Known AC50 results, listed for orientation:
molecule	target under test	AC50
CC(C[N+](C)(C)C)OC(N)=O (centres undefined)	Cannabinoid receptor 1 (Homo sapiens)	> 10 µM
CS(=O)(=O)c1ccc(C2=C(c3ccccc3)C(=O)OC2)cc1	Cannabinoid receptor 1 (Homo sapiens)	> 10 µM
Cn1nnc2c(C(N)=O)ncn2c1=O [TEMOZOLOMIDE]	Cannabinoid receptor 1 (Homo sapiens)	> 10 µM
CC(Oc1c(Cl)cccc1Cl)C1=NCCN1 (centres undefined)	Cannabinoid receptor 1 (Homo sapiens)	> 30 µM

Entry CC(C)(C)c1cc(C(C)(C)C)c(NC(=O)c2c[nH]c3ccccc3c2=O)cc1O : AC50 on Cannabinoid receptor 1 (Homo sapiens) = > 10 µM

Item NC(=O)OCC(COC(N)=O)c1ccccc1 [FELBAMATE] was tested on Cannabinoid receptor 1 (Homo sapiens); the reported AC50 is > 10 µM

// assay Cannabinoid receptor 1 (Homo sapiens), entry CC1(C)NC(=O)N(c2ccc([N+](=O)[O-])c(C(F)(F)F)c2)C1=O [NILUTAMIDE] , AC50 value = > 30 µM

Field AC50 (system: Cannabinoid receptor 1 (Homo sapiens)) for entry CC1(C)O[C@@H]2C[C@H]3[C@@H]4CCC5=CC(=O)C=C[C@]5(C)[C@H]4[C@@H](O)C[C@]3(C)[C@]2(C(=O)CO)O1 [DESONIDE] = > 10 µM

Reported AC50 (Cannabinoid receptor 1 (Homo sapiens)) for entry C[C@H]1COc2c(C3(N)CC3)c(F)cc3c(=O)c(C(=O)O)cn1c23 is > 10 µM

====

AC50 values for the compounds below.
- target under test: 5-hydroxytryptamine receptor 1A (Homo sapiens, UniProt P08908); also: assay procedure not described here
- Sequence (P08908 whole entry): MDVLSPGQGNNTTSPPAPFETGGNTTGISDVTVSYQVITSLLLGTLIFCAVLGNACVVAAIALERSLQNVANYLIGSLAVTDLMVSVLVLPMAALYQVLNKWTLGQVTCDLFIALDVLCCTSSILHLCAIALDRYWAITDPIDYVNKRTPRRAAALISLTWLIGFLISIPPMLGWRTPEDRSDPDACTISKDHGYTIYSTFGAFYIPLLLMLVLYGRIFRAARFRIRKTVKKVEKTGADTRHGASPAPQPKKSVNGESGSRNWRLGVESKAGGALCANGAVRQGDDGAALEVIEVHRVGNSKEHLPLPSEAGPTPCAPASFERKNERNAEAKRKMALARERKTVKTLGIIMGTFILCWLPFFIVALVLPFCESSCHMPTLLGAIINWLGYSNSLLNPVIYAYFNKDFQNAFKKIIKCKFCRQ
Answer format: numeric, µM implied, no suffix.

compound	target under test	measured
CC(C)(C)NCC(O)COc1cccc2c1SCCC2 (stereo not given)	5-hydroxytryptamine receptor 1A (Homo sapiens, UniProt P08908)	0.0569

Please turn your attention to the following entry.
Lab book: AC50 of CCc1oc2ccccc2c1C(=O)c1cc(I)c(O)c(I)c1 noted as 12.4
